Recorded Papp for the following compounds
Test: Apparent Passive permeability across pig LLC-PK1 cells
Type: ADME, cell-based, Sus scrofa
Include the unit right after the number.

smiles.representation	recorded.metric	reported.result
COCCOc1cc(CCOC)cc(CN(C(=O)[C@H]2CNCC[C@]2(O)c2ccc(F)c(F)c2)C2CC2)c1	Papp	22 ×10⁻⁶ cm/s
COCCc1ccc(Cl)c(CN(C(=O)[C@H]2CNCC[C@@H]2c2ccn(C)c(=O)c2)C2CC2)c1	Papp	1 ×10⁻⁶ cm/s
COCCc1ccc(Cl)c(CN(C(=O)[C@H]2CNCC[C@]2(O)c2ccc(F)c(F)c2)C2CC2)c1	Papp	11 ×10⁻⁶ cm/s

Exam item: Quick one: Papp for COCCCc1cc(CN(C(=O)[C@H]2CNCC[C@@H]2c2ccn(C)c(=O)c2)C2CC2)cc(OCCOC)c1.Cl ?
Marked response: 2 ×10⁻⁶ cm/s
